target-entity: Metabotropic glutamate receptor 8 (Homo sapiens)
method: Agonist activity at mGlu8 (unknown origin) expressed in HEK293 cells coexpressing chimeric Gq/i protein assessed as increase in intracellular calcium accumulation by Fluo-4 AM dye based fluorescence assay
Type: functional, cell-based
Recorded log10 of EC50, one value per entry.
measurement-type: log10 of EC50 (log10 of the value in µM)

| compound | target-entity | log10 of EC50 |
| --- | --- | --- |
| N[C@@H](CCP(=O)(O)Cc1ccc(O)c([N+](=O)[O-])c1)C(=O)O | Metabotropic glutamate receptor 8 (Homo sapiens) | 2.44 |
| N[C@@H](CCP(=O)(O)C(O)c1ccc(C(F)(F)F)c([N+](=O)[O-])c1)C(=O)O (some centres not stated) | Metabotropic glutamate receptor 8 (Homo sapiens) | 0.19 |
| N[C@@H](CCP(=O)(O)[C@@H](O)c1cccc([N+](=O)[O-])c1)C(=O)O | Metabotropic glutamate receptor 8 (Homo sapiens) | 0.11 |
| N[C@@H](CCP(=O)(O)C(O)c1ccc(O)c([N+](=O)[O-])c1)C(=O)O (some centres not stated) | Metabotropic glutamate receptor 8 (Homo sapiens) | 1.86 |
| N[C@@H](CCP(=O)(O)C(O)c1ccc(F)c([N+](=O)[O-])c1)C(=O)O (some centres not stated) | Metabotropic glutamate receptor 8 (Homo sapiens) | -0.18 |
| COc1cc(CP(=O)(O)CC[C@H](N)C(=O)O)cc([N+](=O)[O-])c1O | Metabotropic glutamate receptor 8 (Homo sapiens) | 1.45 |
| N[C@@H](CCP(=O)(O)C(O)c1ccnc(O)c1)C(=O)O (some centres not stated) | Metabotropic glutamate receptor 8 (Homo sapiens) | 1.91 |

----------
Recorded pEC50, one value per entry.
target-entity: Metabotropic glutamate receptor 6 (Homo sapiens, UniProt O15303)
Sequence (O15303 whole entry): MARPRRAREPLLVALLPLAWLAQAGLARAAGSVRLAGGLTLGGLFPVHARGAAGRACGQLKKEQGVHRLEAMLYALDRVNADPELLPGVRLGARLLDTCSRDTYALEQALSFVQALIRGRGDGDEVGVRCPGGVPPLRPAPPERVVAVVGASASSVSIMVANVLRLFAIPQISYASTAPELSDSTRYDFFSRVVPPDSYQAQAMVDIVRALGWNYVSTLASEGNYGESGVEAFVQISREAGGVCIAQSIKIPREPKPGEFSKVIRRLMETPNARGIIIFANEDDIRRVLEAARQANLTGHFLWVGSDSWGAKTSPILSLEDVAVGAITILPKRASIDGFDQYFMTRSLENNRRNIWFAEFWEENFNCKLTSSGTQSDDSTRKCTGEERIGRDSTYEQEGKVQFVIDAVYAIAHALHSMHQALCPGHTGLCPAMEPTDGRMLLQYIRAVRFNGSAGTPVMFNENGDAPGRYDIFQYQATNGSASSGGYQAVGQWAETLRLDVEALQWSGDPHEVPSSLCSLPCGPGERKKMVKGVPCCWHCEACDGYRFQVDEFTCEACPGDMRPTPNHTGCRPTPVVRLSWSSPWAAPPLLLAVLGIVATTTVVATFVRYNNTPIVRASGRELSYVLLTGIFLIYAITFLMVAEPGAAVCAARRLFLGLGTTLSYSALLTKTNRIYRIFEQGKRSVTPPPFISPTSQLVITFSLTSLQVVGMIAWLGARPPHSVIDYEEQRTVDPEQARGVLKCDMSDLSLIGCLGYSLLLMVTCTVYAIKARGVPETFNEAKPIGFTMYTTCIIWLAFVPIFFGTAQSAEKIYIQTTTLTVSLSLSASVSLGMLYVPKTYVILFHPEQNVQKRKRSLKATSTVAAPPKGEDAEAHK
method: Agonist activity at mGlu6 (unknown origin) expressed in HEK293 cells coexpressing chimeric Gq/i protein assessed as increase in intracellular calcium accumulation by Fluo-4 AM dye based fluorescence assay
Format: functional, cell-based
pEC50: −log10 of the molar value.

| compound | pEC50 |
| --- | --- |
| COc1ccc([C@H](O)P(=O)(O)CC[C@H](N)C(=O)O)cc1[N+](=O)[O-] | 5.41 |
| Cc1ccc(C(O)P(=O)(O)CC[C@H](N)C(=O)O)cc1[N+](=O)[O-] (some centres undefined) | 5.40 |
| N[C@@H](CCP(=O)(O)C(O)c1ccc(F)c([N+](=O)[O-])c1)C(=O)O (some centres undefined) | 5.40 |

----------
target-entity: UniProt O00222
method: Agonist activity at mGlu8 (unknown origin) expressed in HEK293 cells coexpressing chimeric Gq/i protein assessed as [3H]inositol phosphate accumulation after 30 mins by scintillation and luminescence counting method
Type: functional, cell-based
pEC50: −log10 of the molar value.
Recorded pEC50, one value per entry.

| compound | pEC50 |
| --- | --- |
| N[C@@H](CCP(=O)(O)Cc1cccc(C(=O)O)c1)C(=O)O | 3.29 |
| N[C@@H](CCP(=O)(O)C(O)c1cc([N+](=O)[O-])cc([N+](=O)[O-])c1O)C(=O)O (some centres undefined) | 5.35 |
| N[C@@H](CCP(=O)(O)C(O)c1cc([N+](=O)[O-])cc([N+](=O)[O-])c1)C(=O)O (some centres undefined) | 5.18 |
| N[C@@H](CCP(=O)(O)C(O)c1ccc(C(=O)O)cc1)C(=O)O (some centres undefined) | 3.85 |
| N[C@H](C(=O)O)c1ccc(C(=O)O)c(C(=O)O)c1 | 7.64 |
| N[C@@H](CCP(=O)(O)C(O)c1ccc([N+](=O)[O-])c(C(F)(F)F)c1)C(=O)O (some centres undefined) | 6.01 |
| N[C@@H](CCP(=O)(O)C(O)c1ccc(F)c([N+](=O)[O-])c1)C(=O)O (some centres undefined) | 5.89 |
| N[C@@H](CCP(=O)(O)C(O)c1cc([N+](=O)[O-])ccc1O)C(=O)O (some centres undefined) | 5.38 |
| NC(c1csc([N+](=O)[O-])c1)P(=O)(O)CC[C@H](N)C(=O)O (some centres undefined) | 5.74 |
| N[C@@H](CCP(=O)(O)C(O)c1ccc([N+](=O)[O-])cc1[N+](=O)[O-])C(=O)O (some centres undefined) | 5.34 |
| N[C@@H](CCP(=O)(O)C(O)c1ccc(C(F)(F)F)cc1)C(=O)O (some centres undefined) | 4.47 |
| N[C@@H](CCP(=O)(O)C(O)c1cccnc1)C(=O)O (some centres undefined) | 4.44 |
| COc1ccc(C(O)P(=O)(O)CC[C@H](N)C(=O)O)cc1[N+](=O)[O-] (some centres undefined) | 5.57 |
| N[C@@H](CCP(=O)(O)C(O)c1cccc(C(=O)O)c1)C(=O)O (some centres undefined) | 3.90 |
| N[C@@H](CCP(=O)(O)C(O)c1c([N+](=O)[O-])cccc1[N+](=O)[O-])C(=O)O (some centres undefined) | 5.54 |
| N[C@@]1(C(=O)O)C[C@H](C(=O)O)[C@H](C(=O)O)C1 | 5.29 |
| N[C@@H](CCP(=O)(O)C(O)c1ccc(C(F)(F)F)o1)C(=O)O (some centres undefined) | 5.28 |
| N#Cc1cccc(C(O)P(=O)(O)CC[C@H](N)C(=O)O)c1 (some centres undefined) | 3.66 |
| N[C@@H](CCP(=O)(O)C(O)c1ccc([N+](=O)[O-])c(O)c1)C(=O)O (some centres undefined) | 4.70 |

----------
target-entity: Metabotropic glutamate receptor 8 (Homo sapiens, UniProt O00222)
Sequence (O00222 whole entry): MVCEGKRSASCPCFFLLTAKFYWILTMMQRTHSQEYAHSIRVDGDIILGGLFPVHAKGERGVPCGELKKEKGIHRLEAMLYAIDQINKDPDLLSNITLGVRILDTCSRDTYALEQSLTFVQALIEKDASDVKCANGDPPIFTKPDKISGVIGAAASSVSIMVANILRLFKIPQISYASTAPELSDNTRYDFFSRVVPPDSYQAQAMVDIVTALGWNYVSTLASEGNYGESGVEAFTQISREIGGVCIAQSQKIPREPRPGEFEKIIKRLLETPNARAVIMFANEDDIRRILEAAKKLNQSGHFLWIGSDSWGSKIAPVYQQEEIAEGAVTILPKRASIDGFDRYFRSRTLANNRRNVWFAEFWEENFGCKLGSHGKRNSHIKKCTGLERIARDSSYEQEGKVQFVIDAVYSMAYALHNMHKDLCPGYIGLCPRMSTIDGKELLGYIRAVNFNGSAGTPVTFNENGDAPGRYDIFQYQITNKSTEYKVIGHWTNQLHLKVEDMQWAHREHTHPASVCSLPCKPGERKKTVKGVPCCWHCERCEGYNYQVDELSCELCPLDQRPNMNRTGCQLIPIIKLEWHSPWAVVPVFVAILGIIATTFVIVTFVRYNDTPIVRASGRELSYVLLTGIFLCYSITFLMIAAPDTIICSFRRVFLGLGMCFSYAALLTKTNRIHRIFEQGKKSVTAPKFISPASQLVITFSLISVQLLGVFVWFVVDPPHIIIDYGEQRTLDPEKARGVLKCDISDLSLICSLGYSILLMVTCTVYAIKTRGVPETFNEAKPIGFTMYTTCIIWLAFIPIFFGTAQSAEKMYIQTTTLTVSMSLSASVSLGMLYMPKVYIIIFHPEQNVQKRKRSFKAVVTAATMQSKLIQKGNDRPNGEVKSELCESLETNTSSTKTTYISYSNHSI
method: Agonist activity at mGlu8 (unknown origin) expressed in HEK293 cells coexpressing chimeric Gq/i protein assessed as increase in intracellular calcium accumulation by Fluo-4 AM dye based fluorescence assay
Format: functional, cell-based

| compound | target-entity | EC50, µM |
| --- | --- | --- |
| N[C@@H](CCP(=O)(O)C(O)c1cc(O)c(O)c([N+](=O)[O-])c1)C(=O)O (some centres not stated) | Metabotropic glutamate receptor 8 (Homo sapiens, UniProt O00222) | 32.8 |
| N[C@@H](CCP(=O)(O)[C@H](O)c1ccc(O)c([N+](=O)[O-])c1)C(=O)O | Metabotropic glutamate receptor 8 (Homo sapiens, UniProt O00222) | 31.4 |
| COc1cc([C@H](O)P(=O)(O)CC[C@H](N)C(=O)O)cc([N+](=O)[O-])c1O | Metabotropic glutamate receptor 8 (Homo sapiens, UniProt O00222) | 26 |
| N[C@@H](CCP(=O)(O)C(O)c1ccc(O)c(C(=O)O)c1)C(=O)O (some centres not stated) | Metabotropic glutamate receptor 8 (Homo sapiens, UniProt O00222) | 40 |
| COc1cc([C@@H](O)P(=O)(O)CC[C@H](N)C(=O)O)cc([N+](=O)[O-])c1O | Metabotropic glutamate receptor 8 (Homo sapiens, UniProt O00222) | 18 |
| Nc1ccc(C(O)P(=O)(O)CC[C@H](N)C(=O)O)cc1 (some centres not stated) | Metabotropic glutamate receptor 8 (Homo sapiens, UniProt O00222) | 8.4 |
| N[C@@H](CCP(=O)(O)C(O)c1c(F)c(F)c(F)c(F)c1F)C(=O)O (some centres not stated) | Metabotropic glutamate receptor 8 (Homo sapiens, UniProt O00222) | 7.6 |

----------
target-entity: Metabotropic glutamate receptor 4 (Homo sapiens)
Sequence (Q14833 whole entry): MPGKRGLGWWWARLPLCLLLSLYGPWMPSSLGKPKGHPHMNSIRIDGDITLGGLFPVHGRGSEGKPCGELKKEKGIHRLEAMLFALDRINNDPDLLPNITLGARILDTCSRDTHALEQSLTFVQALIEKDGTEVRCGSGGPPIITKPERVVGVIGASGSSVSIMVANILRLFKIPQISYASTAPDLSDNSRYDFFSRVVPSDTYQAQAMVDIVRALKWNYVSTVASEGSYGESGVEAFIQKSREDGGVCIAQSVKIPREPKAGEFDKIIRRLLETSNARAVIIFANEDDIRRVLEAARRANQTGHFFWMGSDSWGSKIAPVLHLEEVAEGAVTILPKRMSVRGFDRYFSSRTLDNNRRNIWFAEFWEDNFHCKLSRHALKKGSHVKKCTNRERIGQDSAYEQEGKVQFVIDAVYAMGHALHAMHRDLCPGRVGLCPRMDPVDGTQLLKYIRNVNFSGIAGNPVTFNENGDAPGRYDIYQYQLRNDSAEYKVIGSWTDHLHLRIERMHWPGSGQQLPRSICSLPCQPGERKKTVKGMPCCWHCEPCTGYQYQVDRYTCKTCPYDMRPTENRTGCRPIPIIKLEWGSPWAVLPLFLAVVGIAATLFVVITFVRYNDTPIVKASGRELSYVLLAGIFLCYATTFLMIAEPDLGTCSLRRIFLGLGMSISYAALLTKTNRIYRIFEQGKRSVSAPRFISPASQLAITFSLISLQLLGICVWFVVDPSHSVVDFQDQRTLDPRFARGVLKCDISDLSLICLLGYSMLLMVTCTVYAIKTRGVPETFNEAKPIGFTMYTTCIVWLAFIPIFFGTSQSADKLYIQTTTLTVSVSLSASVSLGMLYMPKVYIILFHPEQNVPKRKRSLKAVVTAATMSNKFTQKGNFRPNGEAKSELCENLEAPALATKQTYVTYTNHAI
method: Agonist activity at mGlu4 (unknown origin) expressed in HEK293 cells coexpressing chimeric Gq/i protein assessed as increase in intracellular calcium accumulation by Fluo-4 AM dye based fluorescence assay
pEC50: −log10 of the molar value.
Outcome label depends on pEC50 relative to 5: at/above gives class 1, below gives class 0.

| compound | group |
| --- | --- |
| COc1ccc([C@@H](O)P(=O)(O)CC[C@H](N)C(=O)O)cc1[N+](=O)[O-] | class 1 |
| N[C@@H](CCP(=O)(O)C(O)c1ccc(Cl)c([N+](=O)[O-])c1)C(=O)O (stereo not given in full) | class 1 |
| COc1cc(C(O)P(=O)(O)CC[C@H](N)C(=O)O)cc([N+](=O)[O-])c1O (mixture of isomers) | class 1 |
| N[C@@H](CCP(=O)(O)C(O)c1ccnc(O)c1)C(=O)O (stereo not given in full) | class 0 |
| N[C@@H](CCP(=O)(O)C(NCc1ccccc1)c1cccc([N+](=O)[O-])c1)C(=O)O (stereo not given in full) | class 0 |
| N[C@@H](CCP(=O)(O)C(O)c1ccc(O)nc1)C(=O)O (stereo not given in full) | class 0 |
| N[C@@H](CCP(=O)(O)C(O)c1ccncc1)C(=O)O (stereo not given in full) | class 0 |
| N[C@@H](CCP(=O)(O)C(O)c1c(F)c(F)c(F)c(F)c1F)C(=O)O (stereo not given in full) | class 1 |
| CCCCCCNC(c1cccc([N+](=O)[O-])c1)P(=O)(O)CC[C@H](N)C(=O)O (stereo not given in full) | class 0 |
| N[C@@H](CCP(=O)(O)[C@H](O)c1cc(F)c(O)c([N+](=O)[O-])c1)C(=O)O | class 1 |
| Nc1ncc(C(O)P(=O)(O)CC[C@H](N)C(=O)O)s1 (stereo not given in full) | class 0 |
| COc1cc([C@H](O)P(=O)(O)CC[C@H](N)C(=O)O)cc([N+](=O)[O-])c1O | class 1 |
| COc1ccc(C(O)P(=O)(O)CC[C@H](N)C(=O)O)cc1[N+](=O)[O-] (stereo not given in full) | class 1 |
| N[C@H](C(=O)O)c1ccc(C(=O)O)c(C(=O)O)c1 | class 1 |
